Measured yeast fitness, listed per entry.
B1: tRNA (parent)
chain: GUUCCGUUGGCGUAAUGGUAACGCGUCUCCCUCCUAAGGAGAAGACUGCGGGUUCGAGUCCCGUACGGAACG

- Variants of: B1
- protocol-details: yeast fitness relative to wild type (ratio to wild type); higher = fitter; tRNA-Arg(CCU), competitive growth, 37 C, YPD
This sample holds only a part of the variants without activity.
Please respond with just the number, no unit label.

Answered examples (5):
yeast fitness measured on GUUCCGUUGGCGUAAUGGUAACGCGUCUCCCUCGUAAGGAGAAGUCUGCGGGGUCGGGUCCCGUACGGAACG [C34G A45U U53G A57G] = 0.569

yeast fitness measured on GUUUCGUUGGCGUACUGGUAACGCGUCUCCCUCCUAAGGAGAAGACUGCGGGUUCGAGUCCCGUACGGAUCG [C4U A15C A70U] = 0.573

yeast fitness measured on GGUCCGUUAGCGUAAUGGUAACGCGUCUCCCUCCUAAGGAGAAGACUGCGGGUUCGAGUCCCGUACGGUACG [U2G G9A A69U] = 0.577

yeast fitness measured on GGUCAGUUGGCGUAAUGGUAACGCGUCUCCCUCCUAAGGAGAAGACUGCGGGUUCGAGUCCCGUACGGAACG [U2G C5A] = 0.725

yeast fitness measured on GUUCCCUUGGCAUAAUGGUAACGCGUCUCCCUCCUAAGGAGAAGACUGUGGGUUCGACUCCCGUACGGAACG [G6C G12A C49U G58C] = 0.776

Others:
yeast fitness measured on GUCCCGUUGGCGUAAUGGUAACCCGUCUCCCUCCUAAGGAGAAGACUGCGGGUUCGAGUCCCGUACGGAACG [U3C G23C] = 0.695

yeast fitness measured on GUUCCGUUGGCGUAAUGGUAACGCGUCUCCCUCCUAAGGAGAAGACUGCGGGUUCGCGUCCCGUACGUAACG [A57C G68U] = 0.696

yeast fitness measured on GUUCCGUUGGCGUAAUGGUAACGCGUCUCCCUCCUUAGGAGAAGACUGCGGGUUCAAGUCCCGUACGGAACG [A36U G56A] = 0.574
